Tested on: Clostridium difficile clinical isolate growth, OD600, 24 h
Assay: growth modulation of Clostridium difficile isolate – OD600, 9-point, retest, dose response (AID 1224920);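 note: inhibitors lower culture turbidity so OD600 falls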
pIC50: −log10 of the molar value.
As shown below, each of these compounds has a reported pIC50 value.

{"COMPOUND": "COc1ccc(-c2ccc(C3[C@@H]4CN(S(=O)(=O)c5ccccc5C)C[C@H]3N4)cc2)cc1 (some centres not stated)", "pIC50": 4.66}
{"COMPOUND": "O=C(C[C@H]1CC[C@H]2[C@@H](COC[C@H](O)CN2C(=O)Nc2cc(Cl)cc(Cl)c2)O1)N1CCOCC1", "pIC50": 4.82}
{"COMPOUND": "O=C(Nc1ccc(F)cc1)N1[C@@H]2CNC[C@H]1C2c1ccc(/C=C/c2ccccc2)cc1 (some centres not stated)", "pIC50": 4.86}
{"COMPOUND": "COc1cccc(S(=O)(=O)N2C[C@@H]3N[C@H](C2)C3c2ccc(-c3cccc(C)c3)cc2)c1 (some centres not stated)", "pIC50": 5.05}
{"COMPOUND": "COc1cc(CN2C[C@@H]3N[C@H](C2)C3c2ccc(/C=C/c3ccccc3)cc2)cc(OC)c1 (some centres not stated)", "pIC50": 5.02}
{"COMPOUND": "COc1ccc(C#Cc2ccc([C@@H]3[C@H](CO)N4CCCCN(Cc5ccccc5F)C[C@@H]34)cc2)cc1", "pIC50": 5.09}
{"COMPOUND": "O=C(C[C@H]1CC[C@H]2[C@@H](COC[C@H](O)CN2C(=O)Nc2ccc(C(F)(F)F)cc2)O1)NC1Cc2ccccc2C1", "pIC50": 5.42}
{"COMPOUND": "Cc1ccccc1-c1ccc([C@@H]2[C@H](CO)N3CCCCN(C(=O)Nc4ccc(F)cc4)C[C@@H]23)cc1", "pIC50": 4.86}
{"COMPOUND": "O=C(Nc1ccc(C(F)(F)F)cc1)N1[C@@H]2CNC[C@H]1C2c1ccc(-c2ccc(F)cc2)cc1 (some centres not stated)", "pIC50": 4.86}
{"COMPOUND": "Cc1ccccc1-c1ccc(C2[C@@H]3CN(C(=O)c4ccc(F)cc4)C[C@H]2N3)cc1 (some centres not stated)", "pIC50": 4.19}
{"COMPOUND": "O=S(=O)(Cc1ccccc1)N1C[C@@H]2N[C@H](C1)C2c1ccc(-c2ccccc2)cc1 (some centres not stated)", "pIC50": 4.22}
{"COMPOUND": "Cc1cccc(S(=O)(=O)N2C[C@@H]3N[C@H](C2)C3c2ccc(-c3ccccc3F)cc2)c1 (some centres not stated)", "pIC50": 4.95}
{"COMPOUND": "COc1cccc(-c2ccc(C3[C@H]4CNC[C@@H]3N4Cc3cc(F)ccc3F)cc2)c1 (some centres not stated)", "pIC50": 4.52}
{"COMPOUND": "O=C(c1ccc(F)cc1)N1CC(=O)N2[C@@H](CO)[C@H](c3ccc(C#CCC4CCCC4)cc3)[C@@H]2C1", "pIC50": 4.80}
{"COMPOUND": "CC(C)CC#Cc1ccc([C@@H]2[C@H](CO)N3CCCCN(C(=O)Nc4ccccc4)C[C@@H]23)cc1", "pIC50": 4.88}
{"COMPOUND": "O=C(Nc1ccccc1)N1CCCCN2[C@@H](CO)[C@H](c3ccc(C#Cc4ccccc4)cc3)[C@@H]2C1", "pIC50": 4.72}
{"COMPOUND": "COc1ccc(-c2ccc(C3[C@H]4CNC[C@@H]3N4Cc3cc(OC)cc(OC)c3)cc2)cc1 (some centres not stated)", "pIC50": 4.96}
